Where do these numbers come from? They come from paper PMC5309245.

- Test System: S. pneumoniae recombinant NanA 20566_LC (Streptococcus pneumoniae, UniProt P62575)
- Protocol Description: biochemical
- Set-up: species or system Streptococcus pneumoniae DSM20566
- Reported Conditions: Ki
Property: Ki (nM)
Give bare numbers, in nM.

Q: Give its Ki value. Item: Cc1cc(N=Nc2ccc(N=Nc3c(O)c(S(=O)(=O)O)cc4cc(S(=O)(=O)O)ccc34)cc2C)ccc1N=Nc1ccc2cc(S(=O)(=O)O)cc(S(=O)(=O)O)c2c1
Result: 120

###

- Test System: S. pneumoniae DSM20566 NA (NanA) (Streptococcus pneumoniae, UniProt P62575)
- Construct: host or cells: either rNanA from E. coli BL21(DE3) or total precipitated protein of S. pneumoniae DSM20566
- Sequence (P62575 54-1035): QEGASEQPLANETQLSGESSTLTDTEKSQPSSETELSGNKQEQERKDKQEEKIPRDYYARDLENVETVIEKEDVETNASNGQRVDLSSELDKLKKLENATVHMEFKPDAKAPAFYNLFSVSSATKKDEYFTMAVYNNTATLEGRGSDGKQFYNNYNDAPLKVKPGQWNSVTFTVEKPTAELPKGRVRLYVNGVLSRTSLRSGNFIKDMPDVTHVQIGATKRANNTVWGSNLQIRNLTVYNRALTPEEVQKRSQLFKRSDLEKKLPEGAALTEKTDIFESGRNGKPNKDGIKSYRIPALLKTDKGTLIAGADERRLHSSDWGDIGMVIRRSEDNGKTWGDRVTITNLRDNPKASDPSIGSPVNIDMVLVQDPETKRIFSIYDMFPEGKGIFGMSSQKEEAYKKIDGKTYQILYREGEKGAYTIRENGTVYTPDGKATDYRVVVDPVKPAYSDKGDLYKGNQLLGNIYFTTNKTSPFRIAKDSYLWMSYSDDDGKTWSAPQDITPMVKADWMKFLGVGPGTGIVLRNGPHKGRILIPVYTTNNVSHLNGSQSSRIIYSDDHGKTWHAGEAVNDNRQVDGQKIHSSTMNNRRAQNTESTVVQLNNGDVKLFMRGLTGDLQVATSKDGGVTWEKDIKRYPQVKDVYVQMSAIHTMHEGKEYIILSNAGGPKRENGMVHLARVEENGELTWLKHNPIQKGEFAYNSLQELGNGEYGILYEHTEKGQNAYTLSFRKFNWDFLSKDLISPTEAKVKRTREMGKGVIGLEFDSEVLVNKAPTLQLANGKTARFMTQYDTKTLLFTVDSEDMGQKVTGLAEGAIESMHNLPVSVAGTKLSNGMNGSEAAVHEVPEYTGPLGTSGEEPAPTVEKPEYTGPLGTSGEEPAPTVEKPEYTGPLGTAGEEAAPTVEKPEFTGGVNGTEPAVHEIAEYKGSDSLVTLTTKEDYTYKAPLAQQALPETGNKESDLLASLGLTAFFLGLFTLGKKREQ
- Protocol Description: FL NA inhibition assay, S. pneumoniae DSM20566
- Type: biochemical
- Reported Conditions: MUNANA substrate; read-out: NA inhibition using FL assay IC50, S. p. DSM20566
Property: IC50 (µM)
Numbers only, in µM.

O=S(=O)(O)c1ccc2c(/N=N/c3ccc(/N=N/c4ccccc4)cc3)c(O)ccc2c1: 11.6
O=S(=O)(O)c1cc(/N=N/c2c(O)ccc3ccccc23)c2c(S(=O)(=O)O)cccc2c1: 46.8

# per-item lookup of IC50; items listed below
1. O=[N+]([O-])c1ccc(/N=N/c2c(O)ccc3cc(S(=O)(=O)O)ccc23)cc1
2. O=S(=O)(O)c1ccc(/N=N/c2ccc(/N=N/c3c(O)c(S(=O)(=O)O)cc4cc(S(=O)(=O)O)ccc34)cc2)cc1
3. COc1cc(/N=N/c2ccc(S(=O)(=O)O)cc2)ccc1/N=N/c1c(O)ccc2cc(S(=O)(=O)O)ccc12

Result:
[23.2, 32, 3.9]

# per-item lookup of IC50; items listed below
1. O=S(=O)(O)c1ccc2c(/N=N/c3ccccc3)c(O)ccc2c1
2. Cc1cc(N=Nc2ccc(N=Nc3c(O)c(S(=O)(=O)O)cc4cc(S(=O)(=O)O)ccc34)cc2C)ccc1N=Nc1ccc2cc(S(=O)(=O)O)cc(S(=O)(=O)O)c2c1
3. Cc1ccccc1/N=N/c1ccc(/N=N/c2c(O)ccc3cc(S(=O)(=O)O)ccc23)c(C)c1
4. O=S(=O)(O)c1ccc2c(/N=N/c3c(O)ccc4ccccc34)cccc2c1
5. O=S(=O)(O)c1ccc(/N=N/c2ccc(/N=N/c3ccc(O)c4ccccc34)cc2)cc1
6. O=S(=O)(O)c1cc(S(=O)(=O)O)c2c(/N=N/c3cccc4ccccc34)c(O)ccc2c1
7. Cc1ccccc1/N=N/c1ccc(/N=N/c2c(O)ccc3cc(S(=O)(=O)O)cc(S(=O)(=O)O)c23)c(C)c1
8. COc1cc(/N=N/c2ccc(S(=O)(=O)O)cc2)ccc1/N=N/c1c(O)ccc2ccccc12

Result:
[10.2, 0.32, 4.79, 5.74, 1.18, 7.68, 0.97, 5.6]

###

- System: IAV 5258/09 NA
- Protocol Description: Hemagglutination (HA)-based NA inhibition assay, IAV 5258/09
- Format: cell-based, influenza A virus A/Jena/5258/2009 (H1N1)
- Reported Conditions: human erythrocytes
Property: NA inhibition using HA assay MIC, IAV 5258/09

Please review the following examples before continuing.
O=S(=O)(O)c1ccc2c(/N=N/c3ccc(/N=N/c4ccccc4)cc3)c(O)ccc2c1: Not active^c
COc1cc(/N=N/c2ccc(S(=O)(=O)O)cc2)ccc1/N=N/c1c(O)ccc2cc(S(=O)(=O)O)ccc12: Not active
O=S(=O)(O)c1ccc(/N=N/c2ccc(/N=N/c3ccc(O)c4ccccc34)cc2)cc1: 24.40 ± 12.47 µM
O=S(=O)(O)c1ccc(/N=N/c2ccc(/N=N/c3c(O)c(S(=O)(=O)O)cc4cc(S(=O)(=O)O)ccc34)cc2)cc1: Not active
O=S(=O)(O)c1cc(/N=N/c2c(O)ccc3ccccc23)c2c(S(=O)(=O)O)cccc2c1: Not active^c
O=[N+]([O-])c1ccc(/N=N/c2c(O)ccc3cc(S(=O)(=O)O)ccc23)cc1: Not active

Q: Give its NA inhibition using HA assay MIC, IAV 5258/09 value. Item: COc1cc(/N=N/c2ccc(S(=O)(=O)O)cc2)ccc1/N=N/c1c(O)ccc2ccccc12
Result: Not active^c
